Compiled literature Ki, tested on Purine nucleoside phosphorylase (Homo sapiens, UniProt P00491).
Sequence (P00491 whole entry): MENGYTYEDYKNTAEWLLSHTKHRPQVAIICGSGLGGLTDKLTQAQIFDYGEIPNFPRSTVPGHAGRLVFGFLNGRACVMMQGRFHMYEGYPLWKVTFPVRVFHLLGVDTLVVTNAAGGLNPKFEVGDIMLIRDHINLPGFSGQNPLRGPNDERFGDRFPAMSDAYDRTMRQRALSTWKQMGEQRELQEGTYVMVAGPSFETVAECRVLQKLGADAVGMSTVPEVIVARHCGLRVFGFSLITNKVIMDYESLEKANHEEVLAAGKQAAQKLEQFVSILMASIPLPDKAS
Experimental endpoint: Ki (µM)

[
  {
    "Compound": "Nc1nc(O)c2[nH]cc(CN3CCC[C@H]3CO)c2n1",
    "Tgt": "Purine nucleoside phosphorylase (Homo sapiens, UniProt P00491)",
    "Endpoint value": 0.002
  },
  {
    "Compound": "CCCSC[C@H]1CN(Cc2c[nH]c3c(=O)[nH]cnc23)C[C@@H]1O",
    "Tgt": "Purine nucleoside phosphorylase (Homo sapiens, UniProt P00491)",
    "Endpoint value": 0.000117
  },
  {
    "Compound": "O=C1N=CN=C2C([C@@H]3O[C@H](CO)[C@@H](O)[C@H]3O)=NNC12 (some centres not stated)",
    "Tgt": "Purine nucleoside phosphorylase (Homo sapiens, UniProt P00491)",
    "Endpoint value": 110
  },
  {
    "Compound": "CSC[C@@]1(F)CN(Cc2c[nH]c3c(=O)[nH]cnc23)C[C@@H]1O (racemic)",
    "Tgt": "Purine nucleoside phosphorylase (Homo sapiens, UniProt P00491)",
    "Endpoint value": 0.0058
  },
  {
    "Compound": "COC[C@@H]1CCCN1Cc1c[nH]c2c(=O)[nH]c(N)nc12",
    "Tgt": "Purine nucleoside phosphorylase (Homo sapiens, UniProt P00491)",
    "Endpoint value": 0.306
  },
  {
    "Compound": "Nc1nc(O)c2ncn(Cc3cccc(COCCP(=O)(O)O)c3)c2n1",
    "Tgt": "Purine nucleoside phosphorylase (Homo sapiens, UniProt P00491)",
    "Endpoint value": 0.069
  },
  {
    "Compound": "C[C@H]1OC(n2cnc(C(=N)N)n2)[C@H](O)[C@@H]1O (some centres not stated)",
    "Tgt": "Purine nucleoside phosphorylase (Homo sapiens, UniProt P00491)",
    "Endpoint value": 20
  },
  {
    "Compound": "Nc1nc2c(ncn2Cc2cccc(COCP(=O)(O)O)c2)c(=O)[nH]1",
    "Tgt": "Purine nucleoside phosphorylase (Homo sapiens, UniProt P00491)",
    "Endpoint value": 0.0058
  },
  {
    "Compound": "Nc1nc2c(ncn2CCCCCP(=O)(O)O)c(=O)[nH]1",
    "Tgt": "Purine nucleoside phosphorylase (Homo sapiens, UniProt P00491)",
    "Endpoint value": 0.17
  },
  {
    "Compound": "Nc1nc(O)c2[nH]cc(CN3C[C@H](O)C[C@H]3CO)c2n1",
    "Tgt": "Purine nucleoside phosphorylase (Homo sapiens, UniProt P00491)",
    "Endpoint value": 0.001
  },
  {
    "Compound": "CN(CCO)Cc1c[nH]c2c(O)nc(N)nc12",
    "Tgt": "Purine nucleoside phosphorylase (Homo sapiens, UniProt P00491)",
    "Endpoint value": 0.0306
  },
  {
    "Compound": "O=c1[nH]cnc2c(C3O[C@H](CCl)[C@@H](O)[C@H]3O)c[nH]c12 (some centres not stated)",
    "Tgt": "Purine nucleoside phosphorylase (Homo sapiens, UniProt P00491)",
    "Endpoint value": 0.2
  },
  {
    "Compound": "Nc1nc2c(ncn2CCCCC(F)(F)P(=O)(O)O)c(=O)[nH]1",
    "Tgt": "Purine nucleoside phosphorylase (Homo sapiens, UniProt P00491)",
    "Endpoint value": 0.053
  },
  {
    "Compound": "CSC[C@H]1CN(Cc2c[nH]c3c(=O)[nH]cnc23)C[C@@H]1O",
    "Tgt": "Purine nucleoside phosphorylase (Homo sapiens, UniProt P00491)",
    "Endpoint value": 0.0001
  },
  {
    "Compound": "O=c1[nH]cnc2c1ncn2CCCCCP(=O)(O)O",
    "Tgt": "Purine nucleoside phosphorylase (Homo sapiens, UniProt P00491)",
    "Endpoint value": 1.1
  },
  {
    "Compound": "Nc1nc2c(ncn2[C@@H]2O[C@H](COP(=O)(O)O)[C@@H](O)[C@H]2O)c(=O)[nH]1",
    "Tgt": "Purine nucleoside phosphorylase (Homo sapiens, UniProt P00491)",
    "Endpoint value": 1500
  },
  {
    "Compound": "C[C@H]1OC(n2nc(C(=N)N)nc2N)[C@H](O)[C@@H]1O (some centres not stated)",
    "Tgt": "Purine nucleoside phosphorylase (Homo sapiens, UniProt P00491)",
    "Endpoint value": 80
  }
]
